Values were extracted from ChEMBL document CHEMBL4196174.

experiment: Cytotoxicity against African green monkey Vero cells assessed as cell growth inhibition after 4 days by MTS/PMS method; format: cell-based; conditions: chlorocebus sabaeus, Vero cells
readout: CC50 at 96 h (µM)
The reply should contain only the number, in µM.

GET /values?readout=CC50 at 96 h&item= O=C(c1c[nH]c2ccccc12)C(Nc1ccc2[nH]c(=O)oc2c1)c1ccccc1 (configuration not stated)
15

====

Parameter: log10(EC50). Scope: all listed entries.
tested on: dengue virus type 2; experiment: Antiviral activity against Dengue virus 2 Rega infected in African green monkey Vero cells assessed as reduction in viral yield after 4 days by qRT-PCR analysis; format: functional, organism-based; conditions: Dengue virus, Rega, Vero, 96 h
// stored as log10 of EC50 expressed in nM

Worked cases, log10(EC50) given:
In [3]: df
Out[3]:
                                   molecule      readout  readout_number
0  COc1cccc(NC(C(=O)c2c[nH]c3ccccc23)c2ccc3nccnc3c2)c1 (stereo unspecified)  log10(EC50)            3.08
1  COc1cccc(NC(C(=O)c2c[nH]c3ccccc23)c2ccccc2)c1 (stereo unspecified)  log10(EC50)            1.86
2  COc1cccc(NC(C(=O)c2c[nH]c3ccccc23)c2ccncc2)c1 (stereo unspecified)  log10(EC50)            2.14

GET /values?readout=log10(EC50)&item= COc1cccc(NC(C(=O)c2c[nH]c3ccccc23)c2ccccc2)c1OC (stereo unspecified)
3.62

GET /values?readout=log10(EC50)&item= COc1cccc(NC(C(=O)c2c[nH]c3ccccc23)c2nc3ccccc3o2)c1 (stereo unspecified)
1.04

GET /values?readout=log10(EC50)&item= COc1cccc(NC(C(=O)c2c[nH]c3ccccc23)c2cc3ccccn3n2)c1 (stereo unspecified)
1.45

GET /values?readout=log10(EC50)&item= COc1cccc(NC(C(=O)c2c[nH]c3c(C)cccc23)c2ccccc2)c1 (stereo unspecified)
1.71

GET /values?readout=log10(EC50)&item= COc1cccc(NC(C(=O)c2c[nH]c3ccccc23)c2ccc(S(C)(=O)=O)cc2)c1 (stereo unspecified)
3.20

GET /values?readout=log10(EC50)&item= COc1cc(F)cc(NC(C(=O)c2c[nH]c3ccccc23)c2ccccc2)c1 (stereo unspecified)
1.30

GET /values?readout=log10(EC50)&item= COc1cccc(NC(C(=O)c2c[nH]c3c(F)cccc23)c2ccccc2)c1 (stereo unspecified)
1.76

GET /values?readout=log10(EC50)&item= COc1cc(NC(C(=O)c2c[nH]c3ccccc23)c2ccccc2)cc(OCCCO)c1 (stereo unspecified)
1.93

GET /values?readout=log10(EC50)&item= COc1cccc(NC(C(=O)c2c[nH]c3ccc(F)cc23)c2ccccc2)c1 (stereo unspecified)
1.53

GET /values?readout=log10(EC50)&item= COc1cccc(NC(C(=O)c2c[nH]c3ccccc23)c2cnccn2)c1 (stereo unspecified)
2.92

GET /values?readout=log10(EC50)&item= COc1ccc(NC(C(=O)c2c[nH]c3ccccc23)c2ccccc2)cc1OC (stereo unspecified)
1.89

GET /values?readout=log10(EC50)&item= COc1cc(NC(C(=O)c2c[nH]c3ccc(CCO)cc23)c2ccccc2)cc(OC)c1 (stereo unspecified)
2.26

GET /values?readout=log10(EC50)&item= CCOc1cc(NC(C(=O)c2c[nH]c3ccccc23)c2ccccc2)cc(OC)c1 (stereo unspecified)
1.26

GET /values?readout=log10(EC50)&item= COc1cc(NC(C(=O)c2c[nH]c3ccccc23)c2ccc(F)cc2)cc(OCCO)c1 (stereo unspecified)
1.11

GET /values?readout=log10(EC50)&item= COc1cc(NC(C(=O)c2c[nH]c3ccccc23)c2cccnc2)cc(OC)c1 (stereo unspecified)
1.18

GET /values?readout=log10(EC50)&item= COc1cc(NC(C(=O)c2c[nH]c3ccc(F)cc23)c2ccccc2)cc(OC)c1 (stereo unspecified)
0.85

GET /values?readout=log10(EC50)&item= COc1cc(CO)cc(NC(C(=O)c2c[nH]c3ccccc23)c2ccccc2)c1 (stereo unspecified)
1.81

GET /values?readout=log10(EC50)&item= N#Cc1cccc(NC(C(=O)c2c[nH]c3ccccc23)c2ccccc2)c1 (stereo unspecified)
3.32

GET /values?readout=log10(EC50)&item= O=C(c1c[nH]c2ccccc12)C(NC1CCCC1)c1ccccc1 (stereo unspecified)
4.18

GET /values?readout=log10(EC50)&item= COc1cccc(NC(C(=O)c2c[nH]c3ccccc23)c2cc(C)on2)c1 (stereo unspecified)
2.77

GET /values?readout=log10(EC50)&item= COc1cccc(NC(C(=O)c2c[nH]c3cc(Cl)ccc23)c2ccccc2)c1 (stereo unspecified)
1.11

GET /values?readout=log10(EC50)&item= COc1cccc(NC(C(=O)c2c[nH]c3cc(OC)ccc23)c2ccccc2)c1 (stereo unspecified)
1.63

GET /values?readout=log10(EC50)&item= COc1nc(NC(C(=O)c2c[nH]c3ccccc23)c2ccccc2)ns1 (stereo unspecified)
3.52
